Sourced from the supplement of paper PMC11061612

Tested on: SNU-16 (Gastric Carcinoma)
Test: Bliss excess, mean over the matrix (fraction); higher = more synergy
EXPERIMENTAL READOUT: Bliss excess
Returns: the value as a bare number; no unit string appended.

What value of Bliss excess has been recorded for this entry: CCc1c2c(nc3ccc(O)cc13)-c1cc3c(c(=O)n1C2)COC(=O)[C@]3(O)CC [SN-38] + CN(C)CCCOc1ccc(-c2ccc3ncc4c(c3c2)n(C2CCOCC2)c(=O)n4C)cn1 [AZD0156] (first compound max 0.3 µM, 7x7, partner max 1 µM)
0.107

What value of Bliss excess has been recorded for this entry: CCN(CCO)CCCOc1ccc2c(Nc3cc(CC(=O)Nc4cccc(F)c4)[nH]n3)ncnc2c1 [AZD2811] + O=C(c1cc(Cc2n[nH]c(=O)c3ccccc23)ccc1F)N1CCN(C(=O)C2CC2)CC1 [Olaparib] (first compound max 1 µM, 7x7, partner max 10 µM)
-0.0101

* * *

Tested on: NCI-H2052 (Mesothelioma)
Test: combination Emax (second highest fraction inhibited in the dose matrix, 72 h); higher = more inhibition; extreme values may be limits of the assay
EXPERIMENTAL READOUT: combination Emax
Returns: the value as a bare number; no unit string appended.

What value of combination Emax has been recorded for this entry: CN(C)CCCOc1ccc(-c2ccc3ncc4c(c3c2)n(C2CCOCC2)c(=O)n4C)cn1 [AZD0156] + C=CCn1c(=O)c2cnc(Nc3ccc(N4CCN(C)CC4)cc3)nc2n1-c1cccc(C(C)(C)O)n1 [AZD1775] (first compound max 1 µM, partner max 1 µM)
0.376

What value of combination Emax has been recorded for this entry: Cc1c2c(nn1C)CSCc1cc(n(C)n1)CSc1cc(c3ccccc3c1)OCCCc1c(C(=O)O)n(C)c3c-2c(Cl)ccc13 [AZD5991] + Cn1cnc2c(F)c(Nc3ccc(Br)cc3Cl)c(C(=O)NOCCO)cc21 [Selumetinib] (first compound max 1 µM, 7x7, partner max 3 µM)
0.314

* * *

Tested on: LS-123 (Colorectal Carcinoma)
Experiment: Bliss excess, mean over the matrix (fraction); higher = more synergy
EXPERIMENTAL READOUT: Bliss excess
Returns: the value as a bare number; no unit string appended.

What value of Bliss excess has been recorded for this entry: CC1(C)CCC(CN2CCN(c3ccc(C(=O)NS(=O)(=O)c4ccc(NCC5CCOCC5)c([N+](=O)[O-])c4)c(Oc4cnc5[nH]ccc5c4)c3)CC2)=C(c2ccc(Cl)cc2)C1 [Venetoclax] + C=CCn1c(=O)c2cnc(Nc3ccc(N4CCN(C)CC4)cc3)nc2n1-c1cccc(C(C)(C)O)n1 [AZD1775] (first compound max 1 µM, partner max 1 µM)
-0.0165

What value of Bliss excess has been recorded for this entry: Cc1c2c(nn1C)CSCc1cc(n(C)n1)CSc1cc(c3ccccc3c1)OCCCc1c(C(=O)O)n(C)c3c-2c(Cl)ccc13 [AZD5991] + C[C@@H](Nc1cc(F)cc(F)c1)c1cc(C(=O)N(C)C)cc2c(=O)cc(N3CCOCC3)oc12 [AZD8186] (first compound max 1 µM, 7x7, partner max 3 µM)
-0.0006

* * *

System: KS-1 (Glioblastoma)
Assay: Bliss excess, mean over the matrix (fraction); higher = more synergy
EXPERIMENTAL READOUT: Bliss excess
Returns: the value as a bare number; no unit string appended.

What value of Bliss excess has been recorded for this entry: Cc1c2c(nn1C)CSCc1cc(n(C)n1)CSc1cc(c3ccccc3c1)OCCCc1c(C(=O)O)n(C)c3c-2c(Cl)ccc13 [AZD5991] + C[C@@H](Nc1cc(F)cc(F)c1)c1cc(C(=O)N(C)C)cc2c(=O)cc(N3CCOCC3)oc12 [AZD8186] (first compound max 1 µM, 7x7, partner max 3 µM)
-0.0129

What value of Bliss excess has been recorded for this entry: O=C(c1cc(Cc2n[nH]c(=O)c3ccccc23)ccc1F)N1CCN(C(=O)C2CC2)CC1 [Olaparib] + Cc1c2c(nn1C)CSCc1cc(n(C)n1)CSc1cc(c3ccccc3c1)OCCCc1c(C(=O)O)n(C)c3c-2c(Cl)ccc13 [AZD5991] (first compound max 10 µM, 7x7, partner max 1 µM)
-0.0463

What value of Bliss excess has been recorded for this entry: O=C(c1cc(Cc2n[nH]c(=O)c3ccccc23)ccc1F)N1CCN(C(=O)C2CC2)CC1 [Olaparib] + CN(CC[C@H](CSC1=CC=CC=C1)NC2=C(C=C(C=C2)S(=O)(=O)NC(=O)C3=CC=C(C=C3)N4CCC(CC4)[C@H](C5=CC=CC=C5C6=CC=C(C=C6)Cl)O)S(=O)(=O)C(F)(F)F)CCO [AZD4320] (first compound max 10 µM, 7x7, partner max 1 µM)
-0.041

What value of Bliss excess has been recorded for this entry: CCc1c2c(nc3ccc(O)cc13)-c1cc3c(c(=O)n1C2)COC(=O)[C@]3(O)CC [SN-38] + O=C(c1cc(Cc2n[nH]c(=O)c3ccccc23)ccc1F)N1CCN(C(=O)C2CC2)CC1 [Olaparib] (first compound max 0.3 µM, 7x7, partner max 10 µM)
0.0068

What value of Bliss excess has been recorded for this entry: CC1(C)CCC(CN2CCN(c3ccc(C(=O)NS(=O)(=O)c4ccc(NCC5CCOCC5)c([N+](=O)[O-])c4)c(Oc4cnc5[nH]ccc5c4)c3)CC2)=C(c2ccc(Cl)cc2)C1 [Venetoclax] + C[C@@H](Nc1cc(F)cc(F)c1)c1cc(C(=O)N(C)C)cc2c(=O)cc(N3CCOCC3)oc12 [AZD8186] (first compound max 1 µM, 7x7, partner max 3 µM)
0.0007

What value of Bliss excess has been recorded for this entry: Cc1cc2ncnn2cc1Nc1ncc2c(n1)n(C1CCOCC1)c(=O)n2C [AZD7648] + COc1cc([C@@H]2c3cc4c(cc3[C@@H](O[C@@H]3O[C@@H]5CO[C@@H](C)O[C@H]5[C@H](O)[C@H]3O)[C@H]3COC(=O)[C@H]23)OCO4)cc(OC)c1O [Etoposide] (first compound max 10 µM, 7x7, partner max 10 µM)
0.0894

What value of Bliss excess has been recorded for this entry: C=CCn1c(=O)c2cnc(Nc3ccc(N4CCN(C)CC4)cc3)nc2n1-c1cccc(C(C)(C)O)n1 [AZD1775] + O=C(c1cc(Cc2n[nH]c(=O)c3ccccc23)ccc1F)N1CCN(C(=O)C2CC2)CC1 [Olaparib] (first compound max 1 µM, partner max 10 µM)
-0.0097

What value of Bliss excess has been recorded for this entry: NC1(C(=O)N[C@@H](CCO)c2ccc(Cl)cc2)CCN(c2ncnc3[nH]ccc23)CC1 [Capivasertib] + CCN(CCO)CCCOc1ccc2c(Nc3cc(CC(=O)Nc4cccc(F)c4)[nH]n3)ncnc2c1 [AZD2811] (first compound max 10 µM, 7x7, partner max 1 µM)
0.0374

What value of Bliss excess has been recorded for this entry: Cc1c2c(nn1C)CSCc1cc(n(C)n1)CSc1cc(c3ccccc3c1)OCCCc1c(C(=O)O)n(C)c3c-2c(Cl)ccc13 [AZD5991] + C1CN(CCC1(C(=O)N[C@@H](CCO)C2=CC=C(C=C2)Cl)N)C3=NC=NC4=C3C=CN4 [Capivasertib] (first compound max 1 µM, 7x7, partner max 3 µM)
-0.0181

What value of Bliss excess has been recorded for this entry: Cc1c2c(nn1C)CSCc1cc(n(C)n1)CSc1cc(c3ccccc3c1)OCCCc1c(C(=O)O)n(C)c3c-2c(Cl)ccc13 [AZD5991] + CN(C)CCCOc1ccc(-c2ccc3ncc4c(c3c2)n(C2CCOCC2)c(=O)n4C)cn1 [AZD0156] (first compound max 1 µM, 7x7, partner max 1 µM)
-0.0619

What value of Bliss excess has been recorded for this entry: COc1cccc(OCCCN)c1-c1cc(Nc2cnc(C#N)cn2)n[nH]1 [Prexasertib] + CN(C)CCCOc1ccc(-c2ccc3ncc4c(c3c2)n(C2CCOCC2)c(=O)n4C)cn1 [AZD0156] (first compound max 1 µM, 7x7, partner max 1 µM)
-0.0131

What value of Bliss excess has been recorded for this entry: CC1(C)CCC(CN2CCN(c3ccc(C(=O)NS(=O)(=O)c4ccc(NCC5CCOCC5)c([N+](=O)[O-])c4)c(Oc4cnc5[nH]ccc5c4)c3)CC2)=C(c2ccc(Cl)cc2)C1 [Venetoclax] + Cn1cnc2c(F)c(Nc3ccc(Br)cc3Cl)c(C(=O)NOCCO)cc21 [Selumetinib] (first compound max 1 µM, 7x7, partner max 3 µM)
0.0043

What value of Bliss excess has been recorded for this entry: Cc1c2c(nn1C)CSCc1cc(n(C)n1)CSc1cc(c3ccccc3c1)OCCCc1c(C(=O)O)n(C)c3c-2c(Cl)ccc13 [AZD5991] + CCN(CCO)CCCOc1ccc2c(Nc3cc(CC(=O)Nc4cccc(F)c4)[nH]n3)ncnc2c1 [AZD2811] (first compound max 1 µM, 7x7, partner max 1 µM)
-0.0459

* * *

Tested on: NCI-H1568 (Lung Adenocarcinoma)
Test: Bliss excess, mean over the matrix (fraction); higher = more synergy
Tick Condition met if Bliss excess is -0.05 or greater. Tick Condition not met if Bliss excess is less than -0.05.

Test whether the compound Cc1c2c(nn1C)CSCc1cc(n(C)n1)CSc1cc(c3ccccc3c1)OCCCc1c(C(=O)O)n(C)c3c-2c(Cl)ccc13 [AZD5991] + C1CN(CCC1(C(=O)N[C@@H](CCO)C2=CC=C(C=C2)Cl)N)C3=NC=NC4=C3C=CN4 [Capivasertib] (first compound max 1 µM, 7x7, partner max 3 µM) records Bliss excess of -0.05 or higher.
Condition met

Test whether the compound CN(C)CCCOc1ccc(-c2ccc3ncc4c(c3c2)n(C2CCOCC2)c(=O)n4C)cn1 [AZD0156] + C[C@@H]1COCCN1C2=NC(=NC(=C2)C3(CC3)[S@](=N)(=O)C)C4=C5C=CNC5=NC=C4 [AZD6738] (first compound max 1 µM, 7x7, partner max 10 µM) records Bliss excess of -0.05 or higher.
Condition met

Test whether the compound C=CCn1c(=O)c2cnc(Nc3ccc(N4CCN(C)CC4)cc3)nc2n1-c1cccc(C(C)(C)O)n1 [AZD1775] + C1CN(CCC1(C(=O)N[C@@H](CCO)C2=CC=C(C=C2)Cl)N)C3=NC=NC4=C3C=CN4 [Capivasertib] (first compound max 3 µM, partner max 3 µM) records Bliss excess of -0.05 or higher.
Condition not met

Test whether the compound Cc1cc2ncnn2cc1Nc1ncc2c(n1)n(C1CCOCC1)c(=O)n2C [AZD7648] + C=CCn1c(=O)c2cnc(Nc3ccc(N4CCN(C)CC4)cc3)nc2n1-c1cccc(C(C)(C)O)n1 [AZD1775] (first compound max 10 µM, partner max 1 µM) records Bliss excess of -0.05 or higher.
Condition not met

Test whether the compound COc1cccc(OCCCN)c1-c1cc(Nc2cnc(C#N)cn2)n[nH]1 [Prexasertib] + O=C(c1cc(Cc2n[nH]c(=O)c3ccccc23)ccc1F)N1CCN(C(=O)C2CC2)CC1 [Olaparib] (first compound max 1 µM, 7x7, partner max 10 µM) records Bliss excess of -0.05 or higher.
Condition not met
